Here the recorded normalized growth is given for each entry.
Assay Comment: chemical genetic growth profiling, strain panel (AID 1159580);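 also: tested at 20 µM; growth read once vehicle control cultures reached saturation at 30 °C; 1 = growth at the plate median or of vehicle wells; lower values mean less growth of the strain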
Protocol Conditions: S. cerevisiae deletion strains, growth OD, locus YEL061C, strain CIN8 (second series), active compounds read low
Among all 5,500 compounds or so, about 2,000 (36%) were called active. Not shown: some 18% with an inconclusive outcome. This is one part of the list.

Some compounds with known normalized growth results, for comparison:
Compound	normalized growth
NS(=O)(=O)c1cc(C2(O)NC(=O)c3ccccc32)ccc1Cl (configuration not stated)	1 (inactive)
C[C@@H]1O[C@@H](OC[C@H]2OC(Oc3c(-c4ccc(OCCO)c(OCCO)c4)oc4cc(OCCO)cc(O)c4c3=O)[C@H](O)[C@@H](O)[C@@H]2O)[C@H](O)[C@H](O)[C@H]1O (some centres not stated)	0.947 (inactive)
COc1ccc(-c2oc3c(CC=C(C)C)c(O[C@@H]4O[C@H](CO)[C@@H](O)[C@H](O)[C@H]4O)cc(O)c3c(=O)c2O[C@@H]2O[C@@H](C)[C@H](O)[C@@H](O)[C@H]2O)cc1	1.04 (inactive)
COc1cc(OC)c2c(=O)c(OC)c(-c3ccc(OC)c(OC)c3)oc2c1	1.02 (inactive)
C[C@H]1O[C@H](OC2[C@@H](O)[C@@H](O)C(O)[C@H](O)[C@H]2O)[C@@H](N)C[C@@H]1N=C(N)C(=O)O (some centres not stated)	0.993 (inactive)
C[C@@H]1CC[C@@]2(OC1)OC1CC3C4CC=C5C[C@@H](O)CC[C@]5(C)C4CC[C@]3(C)C1[C@@H]2C (some centres not stated)	1.01 (inactive)

Now look at this one.
**Q:** So what does the record say about normalized growth for COc1cc(OC)c2c(=O)c(O)c(-c3ccc(OC)c(OC)c3)oc2c1 ?
**A:** 0.98 (inactive)
